Where these numbers come from: the supplement of paper PMC4862054

test system: MCF-10A; experiment: normalised response (% of control), CellTiter-Glo; higher = more viable cells (100 = DMSO, 0 = benzethonium chloride kill control); conditions: incubation time: 72 h
Collected normalised response values appear next to each entry.

COMPOUND | normalised response
Nc1ccn([C@@H]2O[C@H](CO)[C@@H](O)C2(F)F)c(=O)n1 [Gemcitabine] (1 nM) | 109%
COc1cc(Nc2c(C#N)cnc3cc(OCCCN4CCN(C)CC4)c(OC)cc23)c(Cl)cc1Cl [Bosutinib] (10 nM) | 96.9%
CCNC(=O)c1noc(-c2cc(C(C)C)c(O)cc2O)c1-c1ccc(CN2CCOCC2)cc1 [NVP-AUY922] (100 nM) | 15.2%
C=CCN(/C=C1/C(=O)O[C@H](COC)[C@@]2(C)C1=C(O)C(=O)C1=C2[C@H](OC(C)=O)C[C@]2(C)C(=O)CC[C@@H]12)CC=C [Sonolisib] (1000 nM) | 97.6%
CNC(=O)c1ccccc1Sc1ccc2c(/C=C/c3ccccn3)n[nH]c2c1 [Axitinib] (1000 nM) | 95%
O=C(O)CNC(=O)c1c(O)c2ccccc2n(Cc2ccccc2)c1=O [IOX-2] (5 nM) | 106%
CN(C)C(=N)NC(=N)N [Metformin] (100 nM) | 77.5%
CCNC(=O)CCC/C=C\C[C@@H]1[C@@H](/C=C/[C@@H](O)CCc2ccccc2)[C@H](O)C[C@@H]1O [Bimatoprost] (0.55 nM) | 91.1%
CC(C)(C)NC(=O)[C@H]1CC[C@H]2[C@@H]3CC[C@H]4NC(=O)C=C[C@]4(C)[C@H]3CC[C@]12C [Finasteride] (10 nM) | 104%
O=[N+]([O-])c1ccc2c(c1)S(=O)(=O)C=C2 [Stattic] (5000 nM) | 105%
CC(=O)[C@]1(O)Cc2c(O)c3c(c(O)c2[C@@H](O[C@H]2C[C@H](N)[C@H](O)[C@H](C)O2)C1)C(=O)c1ccccc1C3=O [Idarubicin] (1 nM) | 105%
